Test: Tmax in Sprague-Dawley rat at 7.5 mg/kg, po
Format: ADME, organism-based
Parameters: dose 7.5 mg/kg, route oral
Details: in vivo
result_type: Tmax (h)
Answers are plain numbers, in h.

Look at this molecule and give its reported Tmax. C=C(C)[C@@H]1CC[C@]2(C(=O)NCCc3ccccc3C(=O)NCCC(=O)O)CC[C@]3(C)[C@H](CC[C@@H]4[C@@]5(C)CC[C@H](OC(=O)CC(C)(C)C(=O)O)C(C)(C)[C@@H]5CC[C@]43C)[C@@H]12
1

---

Test: Half life in Sprague-Dawley rat at 5 mg/kg, po
Assay type: ADME, organism-based
Set-up: dose 5 mg/kg, route oral
Details: in vivo
result_type: half-life (h)
Give bare numbers, in h.

Please go through the list and note half-life for each compound.
1. C=C(C)[C@@H]1CC[C@]2(C(=O)NCc3ccc(Cl)cc3)CC[C@]3(C)[C@H](CC[C@@H]4[C@@]5(C)CC[C@H](OC(=O)CC(C)(C)C(=O)O)C(C)(C)[C@@H]5CC[C@]43C)[C@@H]12
2. C=C(C)[C@@H]1CC[C@]2(C(=O)NCCc3ccc(OC)cc3)CC[C@]3(C)[C@H](CC[C@@H]4[C@@]5(C)CC[C@H](OC(=O)CC(C)(C)C(=O)O)C(C)(C)[C@@H]5CC[C@]43C)[C@@H]12
3. C=C(C)[C@@H]1CC[C@]2(C(=O)NCc3ccccc3C(=O)O)CC[C@]3(C)[C@H](CC[C@@H]4[C@@]5(C)CC[C@H](OC(=O)CC(C)(C)C(=O)O)C(C)(C)[C@@H]5CC[C@]43C)[C@@H]12
4. C=C(C)[C@@H]1CC[C@]2(C(=O)NCc3ccccc3OC)CC[C@]3(C)[C@H](CC[C@@H]4[C@@]5(C)CC[C@H](OC(=O)CC(C)(C)C(=O)O)C(C)(C)[C@@H]5CC[C@]43C)[C@@H]12

1. 8
2. 4.8
3. 2
4. 2
